- Test system: CDK2
- study-conditions: concentration: 1 μM, replicates: in singlicate; n = 1;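 further: KINOMEscan kinase panel screen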
property-name: %Inh (%)

compound | study-target | property-name | reported-measurement
Cl.Cl.NCC(NCc1ccc(-c2ccnc3[nH]ccc23)s1)c1ccccc1 (centres unmarked) | CDK2 | %Inh | 0
COc1cccc(C2=C(Nc3ccc(Cl)c(C(=O)O)c3)C(=O)NC2=O)c1 | CDK2 | %Inh | 9
COc1ccc(Nc2nccc(N3CCC(NC(=O)Nc4cccc(OC)c4)C3)n2)cc1 (centres unmarked) | CDK2 | %Inh | 0
FC(F)(F)c1ccc(/C=C/c2cncnc2Nc2ccc3[nH]c(Cc4ccccc4)nc3c2)cc1 | CDK2 | %Inh | 0
O=C(Nc1n[nH]c2nc(-c3ccc(O)cc3)ccc12)C1CC1 | CDK2 | %Inh | 75

----------
- System: CDK11
- Construct: gene CDK19
- study-conditions: concentration: 1 μM, replicates: in singlicate; n = 1
The threshold is 2%. Values of %Inh beneath it are tagged Satisfied; values meeting or exceeding it are tagged Not satisfied.

molecule | study-target | group-label
COc1ccc(Nc2nccc(NCCNC(=O)c3cc4ccccc4s3)n2)cc1 | CDK11 | Not satisfied
COc1cc(Nc2nccc(N3CCC(NC(=O)c4cc5ccccc5s4)C3)n2)cc(OC)c1OC (stereo not drawn) | CDK11 | Not satisfied
Cl.Cl.NCC(NC(=O)c1cc(-c2ccccc2)c(-c2ccnc3[nH]ccc23)s1)c1ccccc1 (stereo not drawn) | CDK11 | Not satisfied
C[C@@H]1CC[C@@H](C(=O)Nc2ccccc2)CN1c1cc(-c2ccc3c(N)n[nH]c3c2)nc(N)n1 | CDK11 | Satisfied
Cc1cccc(Nc2nc(N[C@H]3CCNC3)ncc2C(N)=O)c1.Cl | CDK11 | Satisfied

----------
- Tested on: DLK
- Construct: gene MAP3K12
- study-conditions: concentration: 1 μM, replicates: in singlicate; n = 1
Decision: %Inh compared against 20%; not below it gives yes, below it gives no.

molecule | group-label
O=C(Nc1cccc(-c2nn3ccccc3c2-c2ccnc(Nc3cccc(C(F)(F)F)c3)n2)c1)c1c(F)cccc1F | no
CCc1ccc(-c2ccc3c(c2)-c2c(cnn2C)S(=O)(=O)N3C)cc1 | no
c1ccc(-c2n[nH]cc2Nc2ccnc3ccccc23)nc1 | yes
CN1CCN(Cc2cccc(-c3ccc4c(Nc5ccc(Oc6ccccc6)cc5)ccnc4c3)c2)CC1 | yes
CC(=O)Nc1nc2cnc(Nc3cc(NC(=O)c4cccc(C5(C#N)CC5)c4Cl)ccc3C)nc2s1 | no
NCCCC(NC(=O)c1cc(Br)c(-c2ccnc3[nH]ccc23)s1)c1ccccc1.O=C(O)C(F)(F)F.O=C(O)C(F)(F)F (centres unmarked) | no
Cc1ccc(C(=O)Nc2ccc(Nc3ccnc4cc(-c5nccs5)ccc34)cc2O)cc1.Cl | yes
COc1ccc(Nc2nccc(N3CCC(NC(=O)Nc4cccc(OC)c4)C3)n2)cc1 (centres unmarked) | yes

----------
Catalogue of %Inh values
- Tested on: PRKCI
- study-conditions: concentration: 1 μM, replicates: in singlicate; n = 1

molecule | %Inh / %
CN1CCN(Cc2cccc(-c3ccc4c(Nc5ccc(Oc6ccccc6)cc5)ccnc4c3)c2)CC1 | 19
COc1cccc(-c2ccc3c(NC(=O)C4CC4)n[nH]c3n2)c1 | 11
CCn1c(-c2nonc2N)nc2c(C#CC(C)(C)O)nc(OC[C@H](N)c3ccccc3)cc21 | 20
CCS(=O)(=O)c1ccc(OC)c(Nc2nccc(-c3c(-c4cccc(NC(=O)c5c(F)cccc5F)c4)nn4ncccc34)n2)c1 | 16
Cc1occc1-c1ncc(OC[C@@H](N)Cc2c[nH]c3ccccc23)cc1-c1ccc2[nH]nc(C)c2c1.O=C(O)C(F)(F)F | 28
Cl.NC(=O)c1cccc(Nc2nccc(Nc3ccc(Oc4c(Cl)cccc4Cl)c(Cl)c3)n2)c1 | 0
CSc1cccc2c(-c3ccncn3)c(-c3ccc(F)cc3)nn12 | 5
Cl.Cl.NCC(NC(=O)c1cc(-c2ccccc2)c(-c2ccnc3[nH]ccc23)s1)c1ccccc1 (stereo not drawn) | 37
COc1ccc(-c2coc3ccc(-c4nnc(SCc5ccc(OC)c(C(F)(F)F)c5)o4)cc23)cc1 | 0
O=C(Nc1n[nH]c2cc(-c3ccoc3)ccc12)C1CC1 | 0
Cn1cc(-c2ccc3c(c2)CCN3C(=O)Cc2cccc(Cl)c2)c2c(N)ncnc21 | 0
Cl.c1ccc(-c2ccc3c(Nc4ccc5[nH]ccc5c4)ccnc3c2)nc1 | 0
COCCOCCOc1cc2ncc3c4ccc(C#N)cc4[nH]c3c2cc1OC | 33
c1ccc(-c2cnc3nccnn23)cc1 | 3
C[C@@H](Oc1cc(-n2cnc3cc(-c4ccnc(NCCS(C)(=O)=O)c4)ccc32)sc1C(N)=O)c1ccccc1Cl | 9
C[C@@H]1CC[C@@H](C(=O)Nc2ccccc2)CN1c1cc(-c2ccc3c(N)n[nH]c3c2)nc(N)n1 | 15
NCCCC(NC(=O)c1cc(Br)c(-c2ccnc3[nH]ccc23)s1)c1ccccc1.O=C(O)C(F)(F)F.O=C(O)C(F)(F)F (stereo not drawn) | 31
CCc1ccc(-c2ccc3c(c2)-c2c(cnn2C)S(=O)(=O)N3C)cc1 | 2
COc1cc(Nc2ncc3c(C)nc(-c4cc5ccccc5[nH]4)n3n2)cc(OC)c1OC | 45
Oc1cc(Nc2ccnc3cc(I)ccc23)ccc1F | 30
Cc1ccc(S(=O)(=O)Nc2ccc(Nc3nccc(Nc4cccc5[nH]ncc45)n3)cc2)cc1 | 7
COc1cccc(C(=O)Nc2cccc(Oc3ccc4nc(NC(=O)C5CC5)cn4n3)c2)c1 | 40
Cl.Cl.NCC(C(=O)Nc1cc(Br)c(-c2ccnc3[nH]ccc23)s1)c1ccccc1 (stereo not drawn) | 26
CCCCc1nn2ncccc2c1-c1ccnc(Nc2ccc(N3CCN(C)CC3)cc2)n1 | 17
COC(=O)Nc1nc2cc(Oc3ccc(NC(=O)Nc4cc(C(F)(F)F)ccc4F)cn3)ccc2[nH]1.Cl.Cl | 26
COc1ccc(Nc2nccc(N3CCC(NC(=O)Nc4cccc(OC)c4)C3)n2)cc1 (stereo not drawn) | 0
Cn1cc(-c2[nH]c3cc(NC(=O)[C@H](N)C4CCCCC4)cc4c3c2C=NNC4=O)cn1 | 59
Cn1cc(-c2ccc3c(c2)CCN3C(=O)Cc2cccc(F)c2)c2c(N)ncnc21 | 30
Fc1ccc(-c2ncn(C3CCNCC3)c2-c2ccnc(Oc3ccc(-c4ccccc4)cc3)n2)cc1 | 54
Nc1ncnc2c1nc(-c1ccccc1)n2-c1ccccc1 | 13
COc1cccc(C2=C(Nc3ccc(Cl)c(C(=O)O)c3)C(=O)NC2=O)c1 | 21
O=C(Nc1cccc(Oc2ccc3nc(NC(=O)C4CC4)cn3n2)c1)c1ccccc1C(F)(F)F | 28
c1ccc(Oc2ccc(Nc3ccnc4cc(-c5ccc(CNCCN6CCOCC6)o5)ccc34)cc2)nc1 | 39
